Experiment Notes: in vitro
Format: cell-based, human
Condition Description: human, pH 7.4
Readout Label: hemolysis at 1 h (%)
Reply numerically in %, unit not repeated.

| Compound Structure | hemolysis at 1 h, % |
| --- | --- |
| COc1ccc(NC(=O)[C@H](CCCNC(=N)N)NC(=O)c2cc(NC(=O)[C@H](CCCNC(=N)N)NC(=O)c3cc(NC(=O)[C@H](CCCNC(=N)N)NC(=O)c4cc(NC(=O)[C@@H](N)CCCNC(=N)N)ccc4OC)ccc3OCC(=O)O)ccc2OC)cc1C(=O)N[C@@H](Cc1c[nH]c2ccccc12)C(N)=O | 20 |

(Q) Tell us which hemolysis at 1 h value is on record for COc1ccc(NC(=O)[C@@H](CCCNC(=N)N)NC(=O)c2cc(NC(=O)[C@@H](CCCNC(=N)N)NC(=O)c3cc(NC(=O)[C@@H](CCCNC(=N)N)NC(=O)c4cc(NC(=O)[C@H](N)Cc5c[nH]c6ccccc56)ccc4OC)ccc3OC)ccc2OC)cc1C(=O)N[C@H](Cc1c[nH]c2ccccc12)C(=O)O
(A) 50

(Q) Tell us which hemolysis at 1 h value is on record for COc1ccc(NC(=O)[C@H](CCCNC(=N)N)NC(=O)c2cc(NC(=O)[C@H](CCCNC(=N)N)NC(=O)c3cc(NC(=O)[C@H](CCCNC(=N)N)NC(=O)c4cc(NC(C)=O)ccc4OC)ccc3OC)ccc2OCC(=O)O)cc1C(=O)N[C@@H](Cc1c[nH]c2ccccc12)C(N)=O
(A) 25

(Q) Tell us which hemolysis at 1 h value is on record for COc1ccc(NC(=O)[C@@H](CCCNC(=N)N)NC(=O)c2cc(NC(=O)[C@@H](CCCNC(=N)N)NC(=O)c3cc(NC(=O)[C@@H](CCCNC(=N)N)NC(=O)c4cc(NC(=O)[C@H](N)CCC(=O)O)ccc4OC)ccc3OC)ccc2OC)cc1C(N)=O
(A) 50

----------
System: UFH
Experiment Notes: FXa amidolytic assay (Example 10), UFH
Condition Description: read-out: Heparin FXa uM EC50; UFH 0.03 units/mL; human antithrombin, bovine Factor Xa
Readout Label: EC50 (µM)
Reply numerically in µM, unit not repeated.

Known EC50 results, listed for orientation:
| Compound Structure | Target System | Unit String | EC50 |
| --- | --- | --- | --- |
| COc1ccc(NC(=O)[C@H](CCCNC(=N)N)NC(=O)c2cc(NC(=O)[C@H](CCCNC(=N)N)NC(=O)c3cc(NC(=O)[C@H](CCCNC(=N)N)NC(=O)c4cc(NC(=O)[C@@H](N)CCCNC(=N)N)ccc4OC)ccc3OC)ccc2OCC(=O)O)cc1C(=O)N[C@@H](Cc1c[nH]c2ccccc12)C(N)=O | UFH | µM | 0.245 |
| COc1ccc(NC(=O)[C@H](CCCCN)NC(=O)c2cc(NC(=O)[C@H](CCCCN)NC(=O)c3cc(NC(=O)[C@H](CCCCN)NC(=O)c4cc(NC(=O)[C@H](CCCCN)NC(=O)Cc5ccccc5)ccc4OC)ccc3OC)ccc2OCC(=O)O)cc1C(N)=O | UFH | µM | 0.204 |
| COc1ccc(NC(=O)[C@@H](CCCNC(=N)N)NC(=O)c2cc(NC(=O)[C@@H](CCCNC(=N)N)NC(=O)c3cc(NC(=O)[C@@H](CCCNC(=N)N)NC(=O)c4cc(NC(C)=O)ccc4OC)ccc3OC)ccc2OC)cc1C(=O)N[C@H](Cc1ccc(O)cc1)C(=O)O | UFH | µM | 0.215 |
| COc1ccc(NC(=O)[C@H](CCCNC(=N)N)NC(=O)c2cc(NC(=O)[C@H](CCCNC(=N)N)NC(=O)c3cc(NC(=O)[C@H](CCCNC(=N)N)NC(=O)c4cc(NC(C)=O)ccc4OC)ccc3OC)ccc2OCC(=O)O)cc1C(=O)N[C@@H](Cc1c[nH]c2ccccc12)C(N)=O | UFH | µM | 0.295 |

(Q) Tell us which EC50 value is on record for COc1ccc(NC(=O)[C@H](CCCNC(=N)N)NC(=O)c2cc(NC(=O)[C@H](CCCNC(=N)N)NC(=O)c3cc(NC(=O)[C@H](CCCNC(=N)N)NC(=O)c4cc(NC(=O)[C@@H](N)CCCNC(=N)N)ccc4OC)ccc3OC)ccc2OC)cc1C(=O)N[C@@H](Cc1c[nH]c2ccccc12)C(=O)O
(A) 0.301

(Q) Tell us which EC50 value is on record for COc1cc(OC)c(C(=O)N[C@H]2CC[C@@H](NC(=O)c3cc(C(=O)NCCN)c(OCCCCCN)cc3OCCCCCN)CC2)cc1C(=O)N[C@H]1CC[C@@H](NC(=O)c2cc(C(=O)NCCN)c(OCCCCCN)cc2OCCCCCN)CC1
(A) 0.085

(Q) Tell us which EC50 value is on record for COc1ccc(NC(=O)[C@@H](CCCNC(=N)N)NC(=O)c2cc(NC(=O)[C@@H](CCCNC(=N)N)NC(=O)c3cc(NC(=O)[C@@H](CCCNC(=N)N)NC(=O)c4cc(NC(C)=O)ccc4OC)ccc3OC)ccc2OC)cc1C(=O)N[C@H](Cc1c[nH]c2ccccc12)C(=O)O
(A) 0.242
